# Test system: LXFL 529 NSCLC
# Assay Overview: NCI tumour cell line growth inhibition, 48 h
compounds and their reported TGI
Endpoint Name: TGI

>>> value_observed("CCOC(=O)c1cc(OC(=O)CC)c2c(OC)ccc(OC)c2c1")
"> 100 µM"
>>> value_observed("CCN(CC)CCCCC1CCN(CC(=O)N2c3cc(Cl)ccc3NC(=O)CC2C)CC1 (stereo not drawn)")
"> 100 µM"
>>> value_observed("C/C(=N/NC(N)=S)C(CN(C)C)C(C1=C(O)c2ccccc2OC1)c1ccccc1 (stereo not drawn)")
"> 100 µM"
>>> value_observed("CCCCCCCCCCCCC(CCCCCCCCCCCC)OP(=O)(O)O")
"> 100 µM"
>>> value_observed("Nc1nc(=O)n(CC(O)CO)s1 (stereo not drawn)")
"> 100 µM"
>>> value_observed("COc1ccccc1NC(=O)C(CC(C(=O)Nc1ccccc1OC)/C(C)=N/NC(=O)c1ccccc1O)/C(C)=N/NC(=O)c1ccccc1O (stereo not drawn)")
"> 100 µM"
>>> value_observed("Nc1ncnc2c1ncn2C1CC(OC2CCCCO2)C(CO)O1 (stereo not drawn)")
"> 100 µM"
>>> value_observed("CN1N=C2c3ccccc3CC[C@H]2C1c1cccc(O)c1 (stereo partly drawn)")
"> 100 µM"

* * *

# System: DMS 273 small cell lung
# Assay Overview: NCI tumour cell line growth inhibition, 48 h
Endpoint Name: TGI

>>> value_observed("O=C(O)[C@@H](NS(=O)(=O)c1ccc([N+](=O)[O-])cc1)c1ccccc1")
"> 100 µM"
>>> value_observed("O=C(N/N=C(\\c1nc2ccc(Cl)cc2[nH]c1=O)C(O)c1ccccc1Cl)c1ccncc1 (stereo unspecified)")
"> 100 µM"
>>> value_observed("CN1N=C2c3ccccc3CC[C@H]2C1c1cccc(O)c1 (stereo partly specified)")
"> 100 µM"
>>> value_observed("Cc1ccc(NC(=O)CC2C(=O)Nc3ccccc3S2=O)c(C)c1 (stereo unspecified)")
"> 54.1 µM"
>>> value_observed("C=C(CN(C)C)C(=O)c1ccc(Oc2ccccc2)cc1")
"46.8 µM"
>>> value_observed("Cc1ccc(N2C(=O)C(Cl)=C(Cl)C2=O)cc1")
"> 100 µM"

* * *

# Test system: MDA-MB-231 breast
# Assay Overview: NCI tumour cell line growth inhibition, 48 h
In this section we review reported TGI values for a set of compounds.
Endpoint Name: TGI

>>> value_observed("CCC1=[N+]([O-])C(C)(C)NC1(C)C")
"> 10 µM"
>>> value_observed("CC1=C2CN(C(=O)OCC(C)C)CCC2C2=C(C(=O)c3ccccc3C2=O)C1C (stereo not given)")
"> 10 µM"
>>> value_observed("N#CC(c1ccccc1)N(CCOCCOCCN(C(=O)c1cccc2ccccc12)C(C#N)c1ccccc1)C(=O)c1cccc2ccccc12 (stereo not given)")
"> 100 µM"
>>> value_observed("C[C@]12CCC(=O)C=C1CC[C@@H]1[C@@H]2[C@@H](O)C[C@@]2(C)[C@H]1CC[C@]2(O)C(=O)COC(=O)C1CCCC1")
"> 100 µM"
>>> value_observed("CC1(O)Oc2ccc3ccccc3c2C=C1C(N)=O (stereo not given)")
"93.8 µM"

* * *

Each entry below carries its recorded TGI.
# System: OVCAR-5 ovarian
# Assay Overview: NCI tumour cell line growth inhibition, 48 h
Endpoint Name: TGI

>>> value_observed("COCN1C(=O)[C@@H]2CCCN2C(=O)c2ccc([N+](=O)[O-])cc21")
"> 100 µM"
>>> value_observed("CCOC(=O)c1ccc(N=c2oc3ccc(OC)cc3cc2-c2nc3ccccc3[nH]2)cc1")
"> 100 µM"
>>> value_observed("CC/C(SC)=[N+](\\C)[O-]")
"> 100 µM"
